METHOD: qHTS of pediatric cancer cell lines to identify multiple opportunities for drug repurposing: Primary screen for MG 63 (6-TG R) cells (AID 1347105); also: nearly all actives have a fitted effect of over 50% in size
MEASUREMENT CONDITIONS: MG 63 (6-TG R) viability, CellTiter-Glo, 48 h; series mostly up to 46 µM
Inconclusive results are not listed. The source made the active and inactive calls. Calls follow the shape of the dose curve; as a rule, active = well fitted cell-killing curve with a large enough effect; inconclusive = small, poorly fitted or top-dose-only effect; inactive = no such curve, though single readings can be large or run the other way.
Outcomes: active, inactive

- NC(=O)N1c2ccccc2CC(=O)c2ccccc21: inactive
- CN(CCOc1ccc(CC2SC(=O)NC2=O)cc1)c1ccccn1 (centres undefined): inactive
- COc1ccc(C(=O)CC(=O)c2ccc(C(C)(C)C)cc2)cc1: inactive
- O=c1oc2c(O)c(O)cc3c(=O)oc4c(O)c(O)cc1c4c23: inactive
- CO[C@@H]1[C@@H](OC(N)=O)[C@@H](O)[C@H](Oc2ccc3c(O)c(NC(=O)c4ccc(O)c(CC=C(C)C)c4)c(=O)oc3c2C)OC1(C)C: inactive
- O=C(O)CCn1c2c(c3ccccc31)C[C@H](NS(=O)(=O)c1ccc(F)cc1)CC2: inactive
- O=S(=O)(O)CCS: inactive
- N[C@@H](C(=O)N[C@@H]1C(=O)N2C(C(=O)O)=C(Cl)CS[C@H]12)c1ccccc1: inactive
- Cc1noc(NS(=O)(=O)c2ccc(N)cc2)c1C: inactive
- COC(c1ccccc1)(c1ccccc1)[C@H](Oc1nc(C)cc(C)n1)C(=O)O: inactive
- CNS(=O)(=O)Cc1ccc2[nH]cc(CCN(C)C)c2c1: inactive
- S=P(N1CC1)(N1CC1)N1CC1: inactive
- CC(N)C12CC3CC(CC(C3)C1)C2 (centres undefined): inactive
- O=C(O)C1CCCN(CCC=C(c2ccccc2)c2ccccc2)C1 (centres undefined): inactive
- CCCCOc1ccc(CC(=O)NO)cc1: inactive
- C[C@@H]1CN(c2c(F)c(N)c3c(=O)c(C(=O)O)cn(C4CC4)c3c2F)C[C@H](C)N1: inactive
- CN1CCN(c2c(F)cc3c(=O)c(C(=O)O)cn(CCF)c3c2F)CC1: inactive
- CNC1CCCN(c2c(F)cc3c(=O)c(C(=O)O)cn(C4CC4)c3c2OC)C1 (centres undefined): inactive
- CCN1CCCC1CNC(=O)c1cc(S(N)(=O)=O)ccc1OC (centres undefined): inactive
- CCCCc1oc2ccc(NS(C)(=O)=O)cc2c1C(=O)c1ccc(OCCCN(CCCC)CCCC)cc1: active
- O=C(N[C@H](CO)[C@H](O)c1ccc([N+](=O)[O-])cc1)C(Cl)Cl: inactive
- COc1ncnc(NS(=O)(=O)c2ccc(N)cc2)c1OC: inactive
- OC(Cn1cncn1)(Cn1cncn1)c1ccc(F)cc1F: inactive
- COc1cnc(NS(=O)(=O)c2ccc(N)cc2)nc1: inactive
- Nc1nc(N)c2nc(CNc3ccc(C(=O)NC(CCC(=O)O)C(=O)O)cc3)cnc2n1 (centres undefined): inactive
- CC1(C)[C@H](C(=O)O)N2C(=O)C[C@H]2S1(=O)=O: inactive
- COc1cc(NS(=O)(=O)c2ccc(N)cc2)nc(OC)n1: inactive
- CCOCC(O)COc1ccc(NC(=O)CC[S+](C)C)cc1 (centres undefined): inactive
- CC(C)OC(=O)C(C(=O)OC(C)C)=C1SC=CS1: inactive
- O=C(O)c1ccc(-n2nc(-c3ccccc3O)nc2-c2ccccc2O)cc1: inactive
- CC1=NN(c2ccccc2)C(=O)C1: inactive
- CCCc1cc(C(N)=S)ccn1: inactive
- CCn1cc(C(=O)O)c(=O)c2cc(F)c(N3CCNCC3)cc21: inactive
- CC(C(=O)O)c1ccc2c(c1)CC(=O)c1ccccc1S2 (centres undefined): inactive
- C[C@@H](CN1CC(=O)NC(=O)C1)N1CC(=O)NC(=O)C1: inactive
- CCOc1cc(N)c(Cl)cc1C(=O)NCC1CN(Cc2ccc(F)cc2)CCO1 (centres undefined): inactive
- CS(=O)(=O)c1ccc([C@@H](O)[C@@H](CO)NC(=O)C(Cl)Cl)cc1: inactive
- NS(=O)(=O)c1cc2c(cc1Cl)NC(C(Cl)Cl)NS2(=O)=O (centres undefined): inactive
- NCCCC(O)(P(=O)(O)O)P(=O)(O)O: inactive
- C[C@@H]1C[C@H]2[C@@H]3CCC4=CC(=O)C=C[C@]4(C)[C@@]3(Cl)[C@@H](O)C[C@]2(C)[C@@]1(OC(=O)c1ccco1)C(=O)CCl: active
- CC(C)(Sc1cc(C(C)(C)C)c(O)c(C(C)(C)C)c1)Sc1cc(C(C)(C)C)c(O)c(C(C)(C)C)c1: inactive
- Nc1nc(=S)c2[nH]cnc2[nH]1: inactive
- CCn1cc(C(=O)O)c(=O)c2cc(F)c(N3CCN(C)CC3)cc21: inactive
- CCC(=O)O[C@]1(C(=O)SCF)[C@H](C)C[C@H]2[C@@H]3C[C@H](F)C4=CC(=O)C=C[C@]4(C)[C@@]3(F)[C@@H](O)C[C@@]21C: inactive
